- Protocol: Cytotoxicity against human Lipo cells assessed as cell viability after 96 hrs by SRB assay
- Assay type: functional, cell-based
- Applied Conditions: Homo sapiens, Lipo, 96 h
pIC50: −log10 of the molar value.
Would you mind telling me the reported pIC50 of each entry?

INSERT INTO measurements (compound_smiles, metric, result) VALUES
  ('C=C(C)[C@@H]1CC[C@]2([C@H](O)C#CCN(C3CCCCC3)C3CCCCC3)CC[C@]3(C)[C@H](CC[C@@H]4[C@@]5(C)CC[C@H](OC(C)=O)C(C)(C)[C@@H]5CC[C@]43C)[C@@H]12.Cl', 'pIC50', '< 4.52'),
  ('C=C(C)[C@@H]1CC[C@]2([C@H](O)C#CCN3CCCCCC3)CC[C@]3(C)[C@H](CC[C@@H]4[C@@]5(C)CC[C@H](OC(C)=O)C(C)(C)[C@@H]5CC[C@]43C)[C@@H]12', 'pIC50', '< 4.52');

[Q] Any idea what pIC50 was measured for C=C(C)[C@@H]1CC[C@]2([C@@H](O)C#CCN(Cc3ccccc3)Cc3ccccc3)CC[C@]3(C)[C@H](CC[C@@H]4[C@@]5(C)CC[C@H](OC(C)=O)C(C)(C)[C@@H]5CC[C@]43C)[C@@H]12 ?
[A] < 4.15

====

- System: A549
- Protocol: Cytotoxicity against human A549 cells assessed as cell viability after 96 hrs by SRB assay
- Format: functional, cell-based
- Applied Conditions: Homo sapiens, A549, 96 h
Would you mind telling me the reported IC50 of each entry?

INSERT INTO results (compound_smiles, system_name, result) VALUES
  ('C=C(C)[C@@H]1CC[C@]2([C@@H](O)C#CCN(Cc3ccccc3)Cc3ccccc3)CC[C@]3(C)[C@H](CC[C@@H]4[C@@]5(C)CC[C@H](OC(C)=O)C(C)(C)[C@@H]5CC[C@]43C)[C@@H]12', 'A549', '> 70 µM'),
  ('C=CCN(CC#C[C@@H](O)[C@]12CC[C@@H](C(=C)C)[C@@H]1[C@H]1CC[C@@H]3[C@@]4(C)CC[C@H](OC(C)=O)C(C)(C)[C@@H]4CC[C@@]3(C)[C@]1(C)CC2)CC=C', 'A549', '> 60 µM'),
  ('C=C(C)[C@@H]1CC[C@]2([C@H](O)C#CCN(C)C)CC[C@]3(C)[C@H](CC[C@@H]4[C@@]5(C)CC[C@H](OC(C)=O)C(C)(C)[C@@H]5CC[C@]43C)[C@@H]12.Cl', 'A549', '11.1 µM'),
  ('C=C(C)[C@@H]1CC[C@]2([C@H](O)C#CCN3CCCC3)CC[C@]3(C)[C@H](CC[C@@H]4[C@@]5(C)CCC(=O)C(C)(C)[C@@H]5CC[C@]43C)[C@@H]12', 'A549', '3.5 µM'),
  ('C=C(C)[C@@H]1CC[C@]2([C@H](O)C#CCN3CCSCC3)CC[C@]3(C)[C@H](CC[C@@H]4[C@@]5(C)CC[C@H](OC(C)=O)C(C)(C)[C@@H]5CC[C@]43C)[C@@H]12', 'A549', '16.3 µM');

Look at each compound and report its IC50.
1. C=C(C)[C@@H]1CC[C@]2([C@H](O)C#CCN(C3CCCCC3)C3CCCCC3)CC[C@]3(C)[C@H](CC[C@@H]4[C@@]5(C)CC[C@H](OC(C)=O)C(C)(C)[C@@H]5CC[C@]43C)[C@@H]12.Cl
2. C=C(C)[C@@H]1CC[C@]2([C@H](O)C#CCN(CCC)CCC)CC[C@]3(C)[C@H](CC[C@@H]4[C@@]5(C)CC[C@H](OC(C)=O)C(C)(C)[C@@H]5CC[C@]43C)[C@@H]12

[A]
> 30 µM
25.9 µM
